Below is a list of entries, each paired with its recorded Percent Growth value.
Tested on: HCT-116
Experiment: panel of 60 human tumor cell lines, growth inhibition (Colon Cancer)
Conditions: HCT-116; Log10 Concentration −8.0
Report as a plain number; the unit % is understood.

compoundString	Percent Growth (%)
C=C1C(=O)O[C@H]2[C@H]1CC/C(COC(=O)CCC(=O)NCc1ccc(Cl)nc1)=C\CC[C@@]1(C)O[C@@H]21	97
C=C1C(=O)O[C@H]2[C@H]1CC/C(COC(=O)CCC(=O)N1CCC(C)CC1)=C\CC[C@@]1(C)O[C@@H]21	91
C=C1C(=O)O[C@H]2[C@H]1CC/C(COC(=O)N1CCC(F)(F)CC1)=C\CC[C@@]1(C)O[C@@H]21	99

Now examine the next entry.
Request: Find Percent Growth (HCT-116) for the entry C=C1C(=O)O[C@H]2[C@H]1CC/C(COC(=O)NCCO)=C\CC[C@@]1(C)O[C@@H]21
Response: 93
